Answer each item with its documented Kd.
# TARGET UNDER TEST: bovine serum albumin (BSA) (Bos taurus, UniProt P02769)
# Sequence (P02769 25-607): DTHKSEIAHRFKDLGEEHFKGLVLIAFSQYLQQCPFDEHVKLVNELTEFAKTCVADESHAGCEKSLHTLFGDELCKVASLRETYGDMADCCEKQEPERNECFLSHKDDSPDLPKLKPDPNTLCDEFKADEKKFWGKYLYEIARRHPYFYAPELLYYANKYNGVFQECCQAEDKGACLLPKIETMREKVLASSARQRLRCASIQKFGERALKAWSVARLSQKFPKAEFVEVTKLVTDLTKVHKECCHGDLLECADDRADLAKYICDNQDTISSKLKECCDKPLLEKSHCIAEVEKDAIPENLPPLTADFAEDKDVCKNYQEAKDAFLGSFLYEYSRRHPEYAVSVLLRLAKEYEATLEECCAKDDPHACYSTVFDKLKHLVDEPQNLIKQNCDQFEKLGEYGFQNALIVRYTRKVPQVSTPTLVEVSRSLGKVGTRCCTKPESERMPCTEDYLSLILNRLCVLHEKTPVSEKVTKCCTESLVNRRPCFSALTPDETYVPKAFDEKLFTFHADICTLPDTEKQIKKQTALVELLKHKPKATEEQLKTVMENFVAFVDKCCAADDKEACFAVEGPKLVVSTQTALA
# TEST METHOD NOTES: Fluorescence anisotropy titration with BSA
Residues, ends and D or L forms follow the SMILES beside them.

Lab note: measured Kd of O=C(O)CNC(=O)OCC1c2ccccc2-c2ccccc21 was 420 nM

Lab note: measured Kd of O=C(NC(Cc1ccccc1)C(=O)O)OCC1c2ccccc2-c2ccccc21 (stereo not shown) was ~100 nM

Lab note: measured Kd of COc1ccc2c(CC(=O)NCCCC[C@H](NC(=O)OCC3c4ccccc4-c4ccccc43)C(=O)O)cc(=O)oc2c1 was 340 nM

Lab note: measured Kd of NC(=O)[C@H](CC(=O)O)NC(=O)CNC(=O)[C@H](CO)NC(=O)CNC(=O)[C@H](Cc1c[nH]c2ccccc12)NC(=O)OCC1c2ccccc2-c2ccccc21 [Fmoc-WGSGD-NH2] (HELM PEPTIDE1{[O=C(OCC1c2ccccc2-c2ccccc21)[*:2]].W.G.S.G.D.[am]}$$$$V2.0) was ~60 nM

---

# TARGET UNDER TEST: Human Serum Albumin (HSA) (Homo sapiens)
# Sequence (P02768 25-609): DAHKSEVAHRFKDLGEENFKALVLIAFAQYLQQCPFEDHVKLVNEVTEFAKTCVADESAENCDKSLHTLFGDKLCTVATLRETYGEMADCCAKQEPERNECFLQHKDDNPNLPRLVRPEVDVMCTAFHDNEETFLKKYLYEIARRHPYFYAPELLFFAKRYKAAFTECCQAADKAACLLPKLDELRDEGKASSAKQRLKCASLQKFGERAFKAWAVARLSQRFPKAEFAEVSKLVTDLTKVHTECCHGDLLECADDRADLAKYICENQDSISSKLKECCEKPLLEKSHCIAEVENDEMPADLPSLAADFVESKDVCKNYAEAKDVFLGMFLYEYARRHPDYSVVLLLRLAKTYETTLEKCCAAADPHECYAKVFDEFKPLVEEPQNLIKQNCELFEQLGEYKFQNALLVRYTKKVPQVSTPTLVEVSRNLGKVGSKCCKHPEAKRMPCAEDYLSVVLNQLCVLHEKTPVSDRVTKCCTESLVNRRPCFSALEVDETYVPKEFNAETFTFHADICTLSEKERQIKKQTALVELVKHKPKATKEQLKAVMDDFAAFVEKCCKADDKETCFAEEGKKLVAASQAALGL
# TEST METHOD NOTES: Fluorescence anisotropy titration with HSA
# CONDITION LABEL: 200 nM fluorophore; Hill equation; Kd cannot be determined accurately
pKd: −log10 of the molar value.
EXPERIMENTAL READOUT: pKd

Record O=C(NC(Cc1ccccc1)C(=O)O)OCC1c2ccccc2-c2ccccc21 (stereo not shown) / Human Serum Albumin (HSA) (Homo sapiens), pKd recorded as ~8.00
